Reported RM (membrane retention) is given for each of the following molecules.
- TEST NAME: skin-PAMPA permeability assay (gradient-pH, UPLC-DAD)
- STUDY CONDITIONS: mole fraction; with stirring, 24 h incubation; neutral form

MOLECULE	RM (membrane retention)
C[C@H]1O[C@@H](O[C@H]2[C@@H](O)C[C@H](O[C@H]3[C@@H](O)C[C@H](O[C@H]4CC[C@@]5(C)[C@H](CC[C@@H]6[C@@H]5CC[C@]5(C)[C@@H](C7=CC(=O)OC7)CC[C@]65O)C4)O[C@@H]3C)O[C@@H]2C)C[C@H](O)[C@@H]1O [Digitoxin]	0.29(±0.05)
O=c1[nH]cc(F)c(=O)[nH]1 [5-Fluorouracil]	0.08(±0.03)
CC(=O)[C@H]1CC[C@H]2[C@@H]3CCC4=CC(=O)CC[C@]4(C)[C@H]3CC[C@]12C [Progesterone]	0.88(±0.01)
CC(C)Cc1ccc(C(C)C(=O)O)cc1 (stereo not drawn) [Ibuprofen]	0.00
COC1=CC(=O)C[C@@H](C)[C@]12Oc1c(Cl)c(OC)cc(OC)c1C2=O [Griseofulvin]	0.24(±0.02)

Sample CC(C(=O)O)c1ccc(-c2ccccc2)c(F)c1 (stereo not drawn) [Flurbiprofen] ; RM (membrane retention) observed: 0.00

----------
- TEST NAME: skin-PAMPA permeability assay (gradient-pH, UPLC-DAD)
- STUDY CONDITIONS: PAMPA, log Pe, without stirring, 24 h incubation; neutral form (donor pH 3.0, aminopyrine pH 7.0), acceptor pH 7.4, 32 °C
REPORTED PROPERTY: Papp at 24 h, 50 μM (×10⁻⁶ cm/s)
Give the quantity in ×10⁻⁶ cm/s, number only.

Here is how some compounds turned out for Papp at 24 h, 50 μM.
>>> print(df.to_string())
                    structure_smiles_string  reading
0  COC1=CC(=O)C[C@@H](C)[C@]12Oc1c(Cl)c(OC)cc(OC)c1C2=O     6.31
1  CC(=O)[C@H]1CC[C@H]2[C@@H]3CCC4=CC(=O)CC[C@]4(C)[C@H]3CC[C@]12C     20.4

We next turn to a different compound, shown below.
So for O=c1[nH]cc(F)c(=O)[nH]1 , the logged Papp at 24 h, 50 μM turned out to be 0.851

----------
- TEST NAME: skin-PAMPA membrane stability after pre-treatment at basic pH
- STUDY CONDITIONS: membrane soaked at pH 7, 8, 9, 10 for 30 min or 4 h; then assay 4 h with stirring, donor pH 5, acceptor pH 7.4; versus untreated membrane
REPORTED PROPERTY: change of skin-PAMPA log Pe after membrane treatment at basic pH

                    structure_smiles_string          reading
0                                Cc1ccccc1N  remain constant
1  COc1ccc2c(c1)c(CC(=O)O)c(C)n2C(=O)c1ccc(Cl)cc1  remain constant

----------
Papp at 24 h, 50 μM reference
- TEST NAME: skin-PAMPA permeability assay (gradient-pH, UPLC-DAD)
- STUDY CONDITIONS: PAMPA, log Pe, with stirring, 24 h incubation; neutral form (donor pH 3.0, aminopyrine pH 7.0), acceptor pH 7.4, 32 °C
Provide a numeric answer, followed by its unit.

In [3]: df
Out[3]:
                                   compound    reported_property          reading
0  CC(=O)[C@H]1CC[C@H]2[C@@H]3CCC4=CC(=O)CC[C@]4(C)[C@H]3CC[C@]12C [Progesterone]  Papp at 24 h, 50 μM  25.7 ×10⁻⁶ cm/s
1  COC1=CC(=O)C[C@@H](C)[C@]12Oc1c(Cl)c(OC)cc(OC)c1C2=O [Griseofulvin]  Papp at 24 h, 50 μM  7.59 ×10⁻⁶ cm/s

Field: next compound
Looking up O=c1[nH]cc(F)c(=O)[nH]1 [5-Fluorouracil] , I found its Papp at 24 h, 50 μM recorded as 0.692 ×10⁻⁶ cm/s

----------
- TEST NAME: skin-PAMPA permeability assay (gradient-pH, UPLC-DAD)
- STUDY CONDITIONS: mole fraction; without stirring, 30 min incubation; neutral form
REPORTED PROPERTY: RM (membrane retention)

Some entries whose results are on file:
COMPOUND	REPORTED PROPERTY	READING
CC(=O)[C@H]1CC[C@H]2[C@@H]3CCC4=CC(=O)CC[C@]4(C)[C@H]3CC[C@]12C [Progesterone]	RM (membrane retention)	0.33(±0.01)
CC(C(=O)O)c1ccc(-c2ccccc2)c(F)c1 (stereo not drawn) [Flurbiprofen]	RM (membrane retention)	0.13(±0.02)
CC(C)Cc1ccc(C(C)C(=O)O)cc1 (stereo not drawn) [Ibuprofen]	RM (membrane retention)	0.19(±0.07)

Sure, the documented RM (membrane retention) for COC1=CC(=O)C[C@@H](C)[C@]12Oc1c(Cl)c(OC)cc(OC)c1C2=O [Griseofulvin] is 0.03(±0.02)

Recorded result, C[C@H]1O[C@@H](O[C@H]2[C@@H](O)C[C@H](O[C@H]3[C@@H](O)C[C@H](O[C@H]4CC[C@@]5(C)[C@H](CC[C@@H]6[C@@H]5CC[C@]5(C)[C@@H](C7=CC(=O)OC7)CC[C@]65O)C4)O[C@@H]3C)O[C@@H]2C)C[C@H](O)[C@@H]1O [Digitoxin] , RM (membrane retention): 0.00

Entry O=c1[nH]cc(F)c(=O)[nH]1 [5-Fluorouracil] — recorded RM (membrane retention) = 0.00

----------
- TEST NAME: skin-PAMPA permeability assay (gradient-pH, UPLC-DAD)
- STUDY CONDITIONS: mole fraction; without stirring, 24 h incubation; neutral form
Listed below: RM (membrane retention) values for each entry.

Below, 5 molecules whose answers are already recorded.
MOLECULE	RM (membrane retention)
COC1=CC(=O)C[C@@H](C)[C@]12Oc1c(Cl)c(OC)cc(OC)c1C2=O	0.20(±0.02)
O=c1[nH]cc(F)c(=O)[nH]1	0.05(±0.02)
CC(=O)[C@H]1CC[C@H]2[C@@H]3CCC4=CC(=O)CC[C@]4(C)[C@H]3CC[C@]12C	0.83(±0.02)
CC(C(=O)O)c1ccc(-c2ccccc2)c(F)c1 (stereo not drawn)	0.00
C[C@H]1O[C@@H](O[C@H]2[C@@H](O)C[C@H](O[C@H]3[C@@H](O)C[C@H](O[C@H]4CC[C@@]5(C)[C@H](CC[C@@H]6[C@@H]5CC[C@]5(C)[C@@H](C7=CC(=O)OC7)CC[C@]65O)C4)O[C@@H]3C)O[C@@H]2C)C[C@H](O)[C@@H]1O	0.25(±0.02)

Moving on to the next molecule.
The molecule identified as CC(C)Cc1ccc(C(C)C(=O)O)cc1 (stereo not drawn) registered its RM (membrane retention) at 0.00

----------
- TEST NAME: skin-PAMPA permeability assay (gradient-pH, UPLC-DAD)
- STUDY CONDITIONS: mole fraction; without stirring, 4 h incubation; neutral form
REPORTED PROPERTY: RM (membrane retention)

COMPOUND	RM (membrane retention)
O=c1[nH]cc(F)c(=O)[nH]1 [5-Fluorouracil]	0.01(±0.03)

Value of measured RM (membrane retention) for the entry COC1=CC(=O)C[C@@H](C)[C@]12Oc1c(Cl)c(OC)cc(OC)c1C2=O [Griseofulvin] : 0.16(±0.01)

Query CC(C(=O)O)c1ccc(-c2ccccc2)c(F)c1 (stereo not drawn) [Flurbiprofen] yields RM (membrane retention) of 0.00

Value of measured RM (membrane retention) for the entry C[C@H]1O[C@@H](O[C@H]2[C@@H](O)C[C@H](O[C@H]3[C@@H](O)C[C@H](O[C@H]4CC[C@@]5(C)[C@H](CC[C@@H]6[C@@H]5CC[C@]5(C)[C@@H](C7=CC(=O)OC7)CC[C@]65O)C4)O[C@@H]3C)O[C@@H]2C)C[C@H](O)[C@@H]1O [Digitoxin] : 0.09(±0.03)

Lab note: measured RM (membrane retention) of CC(C)Cc1ccc(C(C)C(=O)O)cc1 (stereo not drawn) [Ibuprofen] was 0.09(±0.03)

Record CC(=O)[C@H]1CC[C@H]2[C@@H]3CCC4=CC(=O)CC[C@]4(C)[C@H]3CC[C@]12C [Progesterone] . Reported RM (membrane retention): 0.62(±0.04)

----------
- TEST NAME: skin-PAMPA permeability assay (gradient-pH, UPLC-DAD)
- STUDY CONDITIONS: PAMPA, log Pe, with stirring, 4 h incubation; neutral form (donor pH 3.0, aminopyrine pH 7.0), acceptor pH 7.4, 32 °C
Items are presented alongside their recorded Papp at 4 h, 50 μM.
Please respond with the number in ×10⁻⁶ cm/s and leave the unit unwritten.

Below: 3 compounds and their reported Papp at 4 h, 50 μM.
                                   compound   reported_property  reading
0  COC1=CC(=O)C[C@@H](C)[C@]12Oc1c(Cl)c(OC)cc(OC)c1C2=O  Papp at 4 h, 50 μM     5.62
1  CC(C)Cc1ccc(C(C)C(=O)O)cc1 (centres unmarked)  Papp at 4 h, 50 μM      245
2  CC(=O)[C@H]1CC[C@H]2[C@@H]3CCC4=CC(=O)CC[C@]4(C)[C@H]3CC[C@]12C  Papp at 4 h, 50 μM     77.6

The compound CC(C(=O)O)c1ccc(-c2ccccc2)c(F)c1 (centres unmarked) showed Papp at 4 h, 50 μM equal to 204

# Papp at 4 h, 50 μM (compound: O=c1[nH]cc(F)c(=O)[nH]1 ) is 1.7
